tested.system: Cholinesterase (Equus caballus) (UniProt P81908)
Sequence (P81908 whole entry): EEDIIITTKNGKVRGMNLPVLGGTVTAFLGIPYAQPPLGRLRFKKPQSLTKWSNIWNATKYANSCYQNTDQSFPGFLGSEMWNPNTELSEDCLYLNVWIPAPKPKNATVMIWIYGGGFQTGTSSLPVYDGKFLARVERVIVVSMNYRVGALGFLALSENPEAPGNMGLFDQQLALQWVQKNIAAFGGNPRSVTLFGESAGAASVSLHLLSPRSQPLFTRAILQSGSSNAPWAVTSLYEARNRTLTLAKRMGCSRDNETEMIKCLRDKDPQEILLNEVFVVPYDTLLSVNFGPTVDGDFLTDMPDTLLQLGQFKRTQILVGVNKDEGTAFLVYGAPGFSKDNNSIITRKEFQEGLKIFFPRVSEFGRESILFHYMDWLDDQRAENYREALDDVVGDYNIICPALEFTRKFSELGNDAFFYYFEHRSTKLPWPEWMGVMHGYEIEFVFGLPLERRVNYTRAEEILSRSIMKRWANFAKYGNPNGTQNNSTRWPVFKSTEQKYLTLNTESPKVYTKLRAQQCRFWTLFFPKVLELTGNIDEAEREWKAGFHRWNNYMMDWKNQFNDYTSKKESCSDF
assay.comment: Inhibition of equine serum BChE using butyrylthiocholine iodide as substrate at 10^-4 M preincubated for 15 mins followed by substrate addition and measured for 5 mins by Ellmans method
observation.type: inhibition

Task: Consider the compound COc1cc2c(cc1OC)C(=O)C(CC1CCN(CC(=O)Nc3nc4ccc([N+](=O)[O-])cc4s3)CC1)C2 (stereo not given) and give its measured inhibition.
Result: 1.13%

---

assay.comment: Cytotoxicity against mouse NIH/3T3 cells after 24 hrs by MTT assay
Format: toxicity, NIH3T3
observation.type: IC50 at 24 h (µM)
Write it as a number; the unit µM goes unstated.

{"columns": ["input.smiles", "IC50 at 24 h / µM"],
 "data": [
  ["COc1cc2c(cc1OC)C(=O)/C(=C\\c1ccc(N3CCN(CCN(C)C)CC3)cc1)C2", 320],
  ["COc1cc2c(cc1OC)C(=O)/C(=C\\c1ccc(N3CCN(CCCN(C)C)CC3)cc1)C2", 78],
  ["COc1ccc2c(c1)C(=O)/C(=C\\c1ccc(N3CCN(CCCN(C)C)CC3)cc1)C2", 78]
]}

# ---- query molecule ----
Task: For `COc1ccc2c(c1)C/C(=C/c1ccc(N3CCN(CCCN(C)C)CC3)cc1)C2=O` , what is its reported IC50 at 24 h?
Result: 230

---

tested.system: Cholinesterase (Equus caballus) (UniProt P81908)
assay.comment: Inhibition of equine serum BChE using butyrylthiocholine iodide as substrate at 10^-3 M preincubated for 15 mins followed by substrate addition and measured for 5 mins by Ellmans method
observation.type: inhibition (%)
Write down the numeric answer in % and omit the unit.

{"columns": ["compound", "uom", "inhibition"],
 "data": [
  ["COc1cc2c(cc1OC)C(=O)/C(=C\\c1ccc(N3CCCC3)cc1)C2", "%", 4.98]
]}

Task: Would you mind telling me what inhibition value was observed for COc1cc2c(cc1OC)C(=O)C(CC1CCN(CC(=O)Nc3nc4ccc(C)cc4s3)CC1)C2 (stereo not drawn) ?
Result: 4.29

Task: Same read-out for COc1ccc2nc(NC(=O)CN3CCC(CC4Cc5cc(OC)c(OC)cc5C4=O)CC3)sc2c1 (stereo not drawn) ?
Result: 5.33

---

tested.system: Cholinesterase (Equus caballus) (UniProt P81908)
assay.comment: Inhibition of equine serum BChE using butyrylthiocholine iodide as substrate at 10^-4 M preincubated for 15 mins followed by substrate addition and measured for 5 mins by Ellmans method
Measured inhibition, listed per entry for reference.
Please format your answer as a value with the unit trailing.

Completed entries (count: 2):
{"columns": ["molecule", "inhibition"],
 "data": [
  ["COc1ccc2c(c1)C(=O)/C(=C\\c1ccc(N3CCN(C)CC3)cc1)C2", "9.63%"],
  ["COc1cc2c(cc1OC)C(=O)C(CC1CCN(CC(=O)Nc3nc4cc(OC)c(OC)cc4s3)CC1)C2 (stereo not drawn)", "2.05%"]
]}

Task: // inhibition lookup, key: COc1cc2c(cc1OC)C(=O)C(CC1CCN(CC(=O)Nc3ccc([N+](=O)[O-])cc3)CC1)C2 (stereo not drawn)
Result: 2.69%

---

Readings of inhibition for the listed molecules
tested.system: Cholinesterase (Equus caballus)
assay.comment: Inhibition of equine serum BChE using butyrylthiocholine iodide as substrate at 10^-3 M preincubated for 15 mins followed by substrate addition and measured for 5 mins by Ellmans method
Record the value in %, omitting the unit from your answer.

Solved entries (count: 2):
{"columns": ["molecule", "observation.type", "uom", "test.result"],
 "data": [
  ["COc1cc2c(cc1OC)C(=O)C(CC1CCN(CC(=O)Nc3nc4ccc([N+](=O)[O-])cc4s3)CC1)C2 (stereo not drawn)", "inhibition", "%", 4.18],
  ["COc1ccc2c(c1)C(=O)/C(=C\\c1ccc(N3CCN(CCO)CC3)cc1)C2", "inhibition", "%", 3.45]
]}

# ---- query molecule ----
Task: Could you tell me which inhibition is on file for `CCN1CCN(c2ccc(/C=C3/Cc4cc(OC)c(OC)cc4C3=O)cc2)CC1` ?
Result: 16.9

---

tested.system: Cholinesterase (Equus caballus)
assay.comment: Inhibition of equine serum BChE using butyrylthiocholine iodide as substrate at 10^-4 M preincubated for 15 mins followed by substrate addition and measured for 5 mins by Ellmans method
observation.type: inhibition (%)
The reply should be a number in %, with the unit left off.

Solved cases (5 shown):
{"columns": ["input.smiles", "tested.system", "inhibition (%)"],
 "data": [
  ["COc1ccc2c(c1)C/C(=C/c1ccc(N3CCN(C)CC3)cc1)C2=O", "Cholinesterase (Equus caballus)", 7.56],
  ["COc1ccc2c(c1)C(=O)/C(=C\\c1ccc(N3CCN(CCO)CC3)cc1)C2", "Cholinesterase (Equus caballus)", 1.25],
  ["COc1ccc2c(c1)C/C(=C/c1ccc(N3CCN(c4ccccc4)CC3)cc1)C2=O", "Cholinesterase (Equus caballus)", 2.38],
  ["COc1ccc2c(c1)C/C(=C/c1ccc(N3CCN(CCCN(C)C)CC3)cc1)C2=O", "Cholinesterase (Equus caballus)", 11.3],
  ["COc1ccc2c(c1)C(=O)/C(=C\\c1ccc(N3CCN(CCCN(C)C)CC3)cc1)C2", "Cholinesterase (Equus caballus)", 10.1]
]}

Task: Report inhibition for `COc1cc2c(cc1OC)C(=O)/C(=C\c1ccc(N3CCN(CCCN(C)C)CC3)cc1)C2` please.
Result: 13.9

Task: Follow-up item: `COc1cc2c(cc1OC)C(=O)/C(=C\c1ccc(N3CCN(CCO)CC3)cc1)C2`
Result: 7.55

Task: Then what about the molecule `CCN(CC)c1ccc(/C=C2/Cc3cc(OC)c(OC)cc3C2=O)cc1` ?
Result: 1.96

Task: Now consider `CCN1CCN(c2ccc(/C=C3/Cc4cc(OC)ccc4C3=O)cc2)CC1` .
Result: 8.77

---

tested.system: Cholinesterase (Equus caballus) (UniProt P81908)
assay.comment: Inhibition of equine serum BChE using butyrylthiocholine iodide as substrate at 10^-3 M preincubated for 15 mins followed by substrate addition and measured for 5 mins by Ellmans method
observation.type: inhibition (%)
Your answer should be a plain number; it is taken to be in %.

Here is how some compounds turned out for inhibition.
{"columns": ["compound", "inhibition / %"],
 "data": [
  ["CCN1CCN(c2ccc(/C=C3/Cc4ccc(OC)cc4C3=O)cc2)CC1", 5.05],
  ["COc1ccc(NC(=O)CN2CCC(CC3Cc4cc(OC)c(OC)cc4C3=O)CC2)cc1 (stereo not given)", 4.28],
  ["COc1ccc(NC(=O)CN2CCC(CC3Cc4cc(OC)c(OC)cc4C3=O)CC2)cc1OC (stereo not given)", 5.85],
  ["CCN(CC)c1ccc(/C=C2/Cc3ccc(OC)cc3C2=O)cc1", 2.8],
  ["COc1cc2c(cc1OC)C(=O)C(CC1CCN(CC(=O)Nc3ccc([N+](=O)[O-])cc3)CC1)C2 (stereo not given)", 4.88]
]}

Would you kindly look at the next entry?
Task: Item `COc1ccc2c(c1)C/C(=C/c1ccc(N3CCN(C)CC3)cc1)C2=O` has what recorded inhibition?
Result: 12.9

---

tested.system: Cholinesterase (Equus caballus) (UniProt P81908)
assay.comment: Inhibition of equine serum BChE using butyrylthiocholine iodide as substrate at 10^-3 M preincubated for 15 mins followed by substrate addition and measured for 5 mins by Ellmans method
molecules and their reported inhibition
Response body: numeric value in %, unit text excluded.

Example results:
{"columns": ["molecule", "observation.type", "test.result"],
 "data": [
  ["COc1cc2c(cc1OC)C(=O)C(CC1CCN(CC(=O)Nc3nc4ccccc4s3)CC1)C2 (centres undefined)", "inhibition", 5.23],
  ["COc1ccc2c(c1)C(=O)/C(=C\\c1ccc(N3CCCC3)cc1)C2", "inhibition", 5.7],
  ["COc1cc2c(cc1OC)C(=O)C(CC1CCN(CC(=O)Nc3ccccc3)CC1)C2 (centres undefined)", "inhibition", 5]
]}

Okay, next one:
Task: Data request, read-out inhibition, for `COc1ccc2c(c1)C/C(=C/c1ccc(N3CCN(CCO)CC3)cc1)C2=O`
Result: 7.63

Where do these numbers come from? They come from ChEMBL document CHEMBL3875179.
